| compound | melting point |
| --- | --- |
| N#CC1c2ccccc2COc2ccccc21 (stereo not given) | 65 to 66.5 °C |
| Cc1cccc(N2C(=S)SCC2(C)O)n1 (stereo not given) | 150 to 153 °C |
| O=C1c2ccccc2C(=O)N1Cc1cnccn1 | 141 to 143 °C |
| CNc1nc(-c2cccc(NC(=O)c3ccc(N(C)C)nc3)c2)c2cc(OC)c(OC)cc2n1 | 149 to 151 °C |
| CC(=O)c1ccc(CNS(=O)(=O)c2ccc(C)cc2)cc1 | 125 to 128 °C |
| NS(=O)(=O)c1cc2c(cc1Cl)C(O)N(C1CCN(Cc3cccc(C(F)(F)F)c3)CC1)C2=O (stereo not given) | 204 to 205 °C |
| CCOC(=O)CCc1ccc(N[C@@H](CCC(N)=O)C(=O)O)cc1 | 180 to 181 °C |
| CCn1c(=O)c2c(nc(C=Cc3cc(OC)ccc3S(=O)(=O)O)n2C)n(CC)c1=O | 209 to 210 °C |
| N#Cc1cnc2cc(-c3csc(C=O)c3)ccc2c1Nc1ccc(Cl)cc1Cl | 286 to 288 °C |
| Cc1cc2c(cc1O)C(C)(C)CC1(CC(C)(C)c3cc(OCCCn4ccnc4)c(C)cc3O1)O2 (stereo not given) | 209 to 211 °C |
| CC(C)(C)c1nc2c(Cl)cc(F)c(-n3c(=O)cc(C(F)(F)F)n(N)c3=O)c2o1 | 90 to 92 °C |
| CCCc1nc2c(N)nc3ccccc3c2n1CC1(O)CCOCC1 | 231 to 233 °C |
| COc1cccc(Cc2cc(Br)ccc2O)c1 | 97 to 102 °C |
| COc1ccc(C2COCCOC2)c2sc(NC(=O)c3ccnc(CN4CCCC4)c3)nc12 | 108 to 111 °C |
| CC1=CCc2cccc(OCC3CN(C(C)C)CCO3)c21 (stereo not given) | 114 to 116 °C |
| CN(C(=O)C1CC1)c1cccc(-c2ccnc3c(C(=O)c4ccccc4)cnn23)c1 | 168 to 170 °C |
| CNC(Cc1cc(Br)ccc1N)c1ccsc1C (stereo not given) | 72.5 to 74 °C |
| CNC(=O)c1ccccc1Nc1nc(Nc2ccc3c(c2)CCCCN3C)ncc1Cl | 170 to 172 °C |
| C=CCN1C(=O)COc2cc(F)c(-n3c(=O)cc(CC)[nH]c3=O)cc21 | 197 to 200 °C |
| Nc1ccc([N+](=O)[O-])cc1CO | 141 to 142 °C |

----------
| molecule | melting point |
| --- | --- |
| CC(=O)Nc1cccc(S(=O)(=O)N2[C@H](C)CN(CC(=O)Nc3ccccc3C)C[C@@H]2C)c1 | 236 to 238 °C |
| C=CCC1(C(=O)NCCCC)c2ccccc2-c2ccccc21 | 62.5 to 64 °C |
| COC(=O)[C@H](c1ccccc1Cl)N1CCc2sc(OC(=O)c3ccc([N+](=O)[O-])cc3)cc2C1 | 100 to 102 °C |
| COC1(OCC#Cc2ccc(Cl)nc2)C=CC=NC1 (centres undefined) | 100 to 101 °C |
| CCSCCc1c(-c2ccccc2)nc(N)n2ncnc12 | 120 to 122 °C |
| Cc1cc(-c2cc(C(F)(F)F)n3ncc(C(=O)Nc4cccc(S(=O)(=O)N5CCCC5)c4)c3n2)ccc1Cl | 230 °C |
| Cc1c(NC(=O)OCc2ccccc2)cccc1C(C[N+](=O)[O-])c1c[nH]c2cc(OC3CCOC3)ccc12 (centres undefined) | 130 °C |
| C[C@@H](S[C@H]1CO[C@H](/C=C/C=C/c2ccc(OCC(F)(F)C(F)F)cc2)OC1)[C@](O)(Cn1cncn1)c1ccc(F)cc1F | 75 to 85 °C |
| C#Cc1cccc(Nc2ncnc3c2ccn3CCOC)c1 | 240 to 241 °C |

----------
Overview of reported melting point across a group of compounds:
property: melting point

| compound | value.measured |
| --- | --- |
| Cc1cccc(-c2[nH]c(C(C)C)nc2-c2ccc(F)c(-c3ccc(C(=O)NN4CCOCC4)cc3)c2)n1 | 153 to 155 °C |
| O=C(O)[C@H](Cc1cccc(C(F)(F)F)c1)[C@@H](O)c1ccc(F)cc1 (racemic) | 116 to 118 °C |
| CCCNC(=O)Cc1cnc2cccc(C)n2c1=O | 96 to 98 °C |
| CCCOc1ccc(-c2ccc(-c3ccccc3Cl)n2Cc2ccc(OCCO)c(N)n2)cc1 | 89 to 92 °C |
| Cc1noc(NS(=O)(=O)c2cccc3c(NC(C)C)cccc23)c1C | 156 to 159 °C |
| CC1(C)Oc2ccc(S(=O)(=O)C(F)(F)F)cc2[C@@H](N2Cc3ccccc3C2=O)[C@@H]1O[N+](=O)[O-] (relative stereo) | 190 °C |
| CCN(CC)CC/C=C/c1ccc2c(Nc3ccc(Sc4nccn4C)c(Cl)c3)c(C#N)cnc2c1 | 200 to 210 °C |
| COc1ccc(N(C)c2nccc(-c3cccnc3)n2)cc1 | 88 to 90 °C |
| Oc1nc(-c2ccccc2)cs1 | 194 to 197 °C |
| CCCCCCCCCCCC(=O)c1c[nH]c2ccccc12 | 129 to 130 °C |
| Oc1ccc2nc(-c3cccc(Br)c3)oc2c1 | 248 °C |
| CC1(O)CC(C)(C)N(N=Cc2ccccc2)C(C)(C)C1 | 84 °C |
| CCOc1nn(-c2ccc(C(F)(F)F)cn2)cc1CCCOc1cccc(OC)c1CC(=O)O | 150 to 151 °C |
| CSCC[C@@H](NC(=O)OC(C)(C)C)C(=O)NCC(=O)O | 124 to 126 °C |
| COc1ccc(CC(=O)c2ccc(OCc3ccccc3)cc2)cc1 | 147 to 148 °C |
| CC(=O)NC1C2CC(=O)CC1C(N)=C(O)C2=O (centres undefined) | > 280 °C |
| CC(=O)SCC(Cc1ccccc1)C(=O)Nc1cc(C(=O)OCc2ccccc2)ccc1C (centres undefined) | 134 to 135 °C |
| Cc1cc(-c2c(F)cc3c(=O)c(C(=O)O)cn4c3c2SC[C@@H]4C)cc(C)n1 | 328 to 331 °C |
| COc1ccccc1S(=O)(=O)N(C)c1cccc2cc(C3=NCC(CCO)S3)[nH]c12 (centres undefined) | 154 to 155 °C |
| COC(=O)[C@H](Cc1ccc(NC(=O)c2c(Cl)cccc2Cl)cc1)NC(=O)c1ccc(-n2nnnc2NCc2cccc(O)c2)cc1Cl | 155 to 158 °C |
| CCOC(=O)C(C)c1ccc(NC(C)=O)cc1 (centres undefined) | 94.5 to 95.5 °C |
| CCCCc1ccc(N2CCN(C(=O)Nc3nc(C)c(C)nc3OC)CC2)cc1 | 121 to 123 °C |
| Cc1noc(NS(=O)(=O)c2ccccc2-c2ccc(-c3ncco3)cc2CN2CCN(C)C2=O)c1C | 105 to 115 °C |
| Nc1nc(N)c(CCCC(CO)c2ccc(C(=O)N[C@@H](CCC(=O)O)C(=O)O)cc2)c(O)n1 (some centres undefined) | 164 °C |
| CCN1c2ncccc2NC(=O)c2cc(CCc3ccccc3)cnc21 | 183 to 184 °C |
| Oc1ccc2c(c1)CCCC(c1ccccc1)=C2c1ccc(OCCCCSCc2ccccn2)cc1 | 155 °C |
| C/C(=C\c1ccc(OCc2nc(-c3ccc(C(F)(F)F)cc3)oc2C)cc1)Cn1oc(=O)[nH]c1=O | 90 to 91 °C |
| CC(C)(N)c1ccc(-c2nc(Nc3cccc(C(F)(F)F)c3)ncc2C#N)cc1 | 192 °C |
| O=C(O)C(CC1CCCCC1)c1ccc(OCc2ccc3ccccc3n2)cc1 (centres undefined) | 148 to 150 °C |
| Cc1ccc(-n2nc(C(N)=O)nc2-c2ccccc2)cc1C | 169 to 170 °C |
| C#Cc1cn(C2CC(O)C(CO)O2)c(=O)n(C(=O)c2ccc(C)cc2)c1=O (centres undefined) | 176 to 179 °C |
| CCCCN(CCCC)CCCCCOc1ccc(S(=O)(=O)c2c(CC)cn3ccccc23)cc1 | 89 to 90 °C |
| Cc1c(N)c2c(c3c1C(c1ccc(C(C)C)cc1)CO3)CCCC2 (centres undefined) | 106 to 107 °C |
| CC12CC(F)C3C4CCC(=O)C=C4CCC3C1CCC2=O (centres undefined) | 173 to 174 °C |
| Cc1ccsc1C1CC(=O)CC(=O)C1 | 166 to 168 °C |
| COC(=O)C1=C(SC)N(c2c(C)cc(C)cc2Cl)CCC1 | 85.3 to 87.6 °C |
| NC(=O)N1C(=O)C(C(=O)c2cccs2)c2cc(F)c(Cl)cc21 (centres undefined) | 220 to 221 °C |
| CCOC(=O)C(C)OCc1cc2nc(Cl)ccc2n1S(=O)(=O)c1ccc2nc(NC(C)=O)sc2c1 (centres undefined) | 100 to 102 °C |
| Cc1ccc(-c2csc(-c3ccc4c(c3)C(C)(C)CCC4(C)C)c2)cc1 | 135 to 136 °C |
